System: VEGF-stimulated ADSC/ECFC co-culture, nuclear area imaging
assay.procedure: nuclear area loss in endothelial-stromal co-culture, dose response, cell-based, VEGF stimulation, IC50 (AID 1117324)
The source made the active and inactive calls. The rule behind the calls is not given here.
Outcomes: active, inactive

| compound | measurement.target | discrete.label |
| --- | --- | --- |
| OCCN1CCN(CCCN2c3ccccc3Sc3ccc(C(F)(F)F)cc32)CC1 | VEGF-stimulated ADSC/ECFC co-culture, nuclear area imaging | inactive |
| C[n+]1cc2c3c(ccc2c2ccc4cc5c(cc4c21)OCO5)OCO3 | VEGF-stimulated ADSC/ECFC co-culture, nuclear area imaging | active |
| COC(=O)C1=C(C)NC(C)=C(C(=O)OC(C)(C)CN(C)CCC(c2ccccc2)c2ccccc2)C1c1cccc([N+](=O)[O-])c1 (stereo not drawn) | VEGF-stimulated ADSC/ECFC co-culture, nuclear area imaging | inactive |
| CCCCc1oc2ccc(NS(C)(=O)=O)cc2c1C(=O)c1ccc(OCCCN(CCCC)CCCC)cc1 | VEGF-stimulated ADSC/ECFC co-culture, nuclear area imaging | inactive |
| C[C@H]1O[C@@H](O[C@H]2CC[C@@]3(C)[C@H](CC[C@@H]4[C@@H]3C[C@@H](O)[C@]3(C)[C@@H](C5=CC(=O)OC5)CC[C@]43O)C2)C[C@H](O)[C@@H]1O[C@H]1C[C@H](O)[C@H](O[C@H]2C[C@H](O)[C@H](O[C@@H]3O[C@H](CO)[C@@H](O)[C@H](O)[C@H]3O)[C@@H](C)O2)[C@@H](C)O1 | VEGF-stimulated ADSC/ECFC co-culture, nuclear area imaging | active |
| O=C1c2c(O)cccc2Cc2cccc(O)c21 | VEGF-stimulated ADSC/ECFC co-culture, nuclear area imaging | inactive |
| [O-][n+]1ccccc1SSc1cccc[n+]1[O-] | VEGF-stimulated ADSC/ECFC co-culture, nuclear area imaging | active |
| CN(C)c1ccc2nc3ccc(=[N+](C)C)cc-3sc2c1 | VEGF-stimulated ADSC/ECFC co-culture, nuclear area imaging | inactive |
| CCOC(=O)c1ccccc1C(=O)OCC | VEGF-stimulated ADSC/ECFC co-culture, nuclear area imaging | inactive |
| Cn1ccc2cc3c(cc21)CCN3C(=O)Nc1cccnc1 | VEGF-stimulated ADSC/ECFC co-culture, nuclear area imaging | inactive |
| COc1ccc2cc3[n+](cc2c1OC)CCc1cc2c(cc1-3)OCO2 | VEGF-stimulated ADSC/ECFC co-culture, nuclear area imaging | inactive |
| S=c1nc[nH]c2nc[nH]c12 | VEGF-stimulated ADSC/ECFC co-culture, nuclear area imaging | inactive |
| CN(C)CCCN1c2ccccc2Sc2ccc(Cl)cc21 | VEGF-stimulated ADSC/ECFC co-culture, nuclear area imaging | inactive |
| Nc1ncn([C@@H]2O[C@H](CO)[C@@H](O)[C@H]2O)c(=O)n1 | VEGF-stimulated ADSC/ECFC co-culture, nuclear area imaging | inactive |
| C[C@H](O)CN(C)C | VEGF-stimulated ADSC/ECFC co-culture, nuclear area imaging | inactive |
| CCN[C@@H](C)Cc1cccc(C(F)(F)F)c1 | VEGF-stimulated ADSC/ECFC co-culture, nuclear area imaging | inactive |
| CSc1ccc(/C=C2/C(C)=C(CC(=O)O)c3cc(F)ccc32)cc1 | VEGF-stimulated ADSC/ECFC co-culture, nuclear area imaging | inactive |
| Cc1cc(OCCOCC[N+](C)(C)Cc2ccccc2)ccc1C(C)(C)CC(C)(C)C | VEGF-stimulated ADSC/ECFC co-culture, nuclear area imaging | inactive |
| CCOC(=O)C=C(C)C=CC[C@@H](C)CCCC(C)C | VEGF-stimulated ADSC/ECFC co-culture, nuclear area imaging | inactive |
| CCC(C)n1ncn(-c2ccc(N3CCN(c4ccc(OC[C@H]5CO[C@](Cn6cncn6)(c6ccc(Cl)cc6Cl)O5)cc4)CC3)cc2)c1=O (stereo partly drawn) | VEGF-stimulated ADSC/ECFC co-culture, nuclear area imaging | inactive |
| O=C(Nc1ccc(Br)cc1)c1cc(Br)c(Br)s1 | VEGF-stimulated ADSC/ECFC co-culture, nuclear area imaging | inactive |
| OC[C@H]1O[C@@H](n2cnc3c(=S)nc[nH]c32)[C@H](O)[C@@H]1O | VEGF-stimulated ADSC/ECFC co-culture, nuclear area imaging | inactive |
| Oc1ccc(Cl)cc1Cc1cc(Cl)ccc1O | VEGF-stimulated ADSC/ECFC co-culture, nuclear area imaging | inactive |
| C#C[C@]1(OC(C)=O)CC[C@H]2[C@@H]3CCC4=C/C(=N/O)CC[C@@H]4[C@H]3CC[C@@]21CC | VEGF-stimulated ADSC/ECFC co-culture, nuclear area imaging | inactive |
| CCN(CC)CCNc1ccc(CO)c2sc3ccccc3c(=O)c12 | VEGF-stimulated ADSC/ECFC co-culture, nuclear area imaging | inactive |
| CCN(CC)CCOc1ccc(/C(=C(\Cl)c2ccccc2)c2ccccc2)cc1 | VEGF-stimulated ADSC/ECFC co-culture, nuclear area imaging | inactive |
| CCCCCCCCCCOCC(O)CN (stereo not drawn) | VEGF-stimulated ADSC/ECFC co-culture, nuclear area imaging | inactive |
| O=S(c1cc(Cl)cc(Cl)c1O)c1cc(Cl)cc(Cl)c1O | VEGF-stimulated ADSC/ECFC co-culture, nuclear area imaging | inactive |
| Cc1ccc(O)cc1 | VEGF-stimulated ADSC/ECFC co-culture, nuclear area imaging | inactive |
| OCCN1CCN(CCCN2c3ccccc3Sc3ccc(Cl)cc32)CC1 | VEGF-stimulated ADSC/ECFC co-culture, nuclear area imaging | inactive |
| COc1c(C)c2c(c(O)c1C/C=C(\C)CCC(=O)OCCN1CCOCC1)C(=O)OC2 | VEGF-stimulated ADSC/ECFC co-culture, nuclear area imaging | inactive |
| NC(=O)n1c(O)c(C(=O)c2cccs2)c2cc(Cl)ccc21 | VEGF-stimulated ADSC/ECFC co-culture, nuclear area imaging | inactive |
| CCCSS/C(CCO)=C(\C)N(C=O)Cc1cnc(C)nc1N | VEGF-stimulated ADSC/ECFC co-culture, nuclear area imaging | inactive |
| CCCCCCCCCCCC[N+](C)(C)CCOc1ccccc1 | VEGF-stimulated ADSC/ECFC co-culture, nuclear area imaging | inactive |
| CCCOC(=O)c1cc(O)c(O)c(O)c1 | VEGF-stimulated ADSC/ECFC co-culture, nuclear area imaging | inactive |
| CN(C)C(=S)SSC(=S)N(C)C | VEGF-stimulated ADSC/ECFC co-culture, nuclear area imaging | inactive |
| O=c1[nH]c(=O)n([C@H]2C[C@H](O)[C@@H](CO)O2)cc1F | VEGF-stimulated ADSC/ECFC co-culture, nuclear area imaging | inactive |
| CC(C(O)c1ccccc1)N(C)C/C=C/c1ccccc1 (stereo not drawn) | VEGF-stimulated ADSC/ECFC co-culture, nuclear area imaging | inactive |
| O=C(CCN1CCC(c2ccccc2)C1)c1ccc2c(c1)OCCO2 (stereo not drawn) | VEGF-stimulated ADSC/ECFC co-culture, nuclear area imaging | inactive |
| O=C(Nc1ccc(Cl)cc1)Nc1ccc(Cl)c(Cl)c1 | VEGF-stimulated ADSC/ECFC co-culture, nuclear area imaging | inactive |
| CS(=O)(=O)CCNCc1ccc(-c2ccc3ncnc(Nc4ccc(OCc5cccc(F)c5)c(Cl)c4)c3c2)o1 | VEGF-stimulated ADSC/ECFC co-culture, nuclear area imaging | inactive |
| CC(=O)N(CC(O)CN(C(C)=O)c1c(I)c(C(=O)NCC(O)CO)c(I)c(C(=O)NCC(O)CO)c1I)c1c(I)c(C(=O)NCC(O)CO)c(I)c(C(=O)NCC(O)CO)c1I (stereo not drawn) | VEGF-stimulated ADSC/ECFC co-culture, nuclear area imaging | inactive |
| CCCCCN=C(N)N/N=C/c1c[nH]c2ccc(OC)cc12 | VEGF-stimulated ADSC/ECFC co-culture, nuclear area imaging | inactive |
